All figures here come from patent US9273043B2.

Reported solubility values for the following compounds.
- experiment-description: Aqueous solubility at pH 1.2 and pH 6.8
- Format: physicochemical
- measurement-setup: aqueous solution, pH 6.8; read-out: aqueous solubility at pH 6.8
attribute-measured: solubility (µM)

compound: O=C(Nc1ccc(C(F)(F)F)c(F)c1)N1CCC(F)(c2ncccc2F)CC1 [Compound 212]
attribute-measured: solubility
meas-value: 1.9

compound: O=C(Nc1ccc(OC(F)(F)F)cc1)N1CC=C(c2ncccc2Cl)CC1 [Compound 214]
attribute-measured: solubility
meas-value: 1.8

compound: O=C(Nc1ccc(C(F)(F)F)c(F)c1)N1CC=C(c2ncccc2Cl)CC1 [Compound 213]
attribute-measured: solubility
meas-value: 0.8

compound: O=C(Nc1ccc(S(=O)(=O)C(F)(F)F)cc1)N1CCC(F)(c2ncccc2Cl)CC1 [Compound 210]
attribute-measured: solubility
meas-value: 0.4

compound: O=C(Nc1ccc(C(F)(F)F)c(F)c1)N1CCC(F)(c2ncccc2Cl)CC1 [Compound 209]
attribute-measured: solubility
meas-value: 1.0

compound: O=C(Nc1ccc(OC(F)(F)F)cc1)N1CCC(F)(c2ncccc2Cl)CC1 [Compound 211]
attribute-measured: solubility
meas-value: 0.4

compound: O=C(Nc1ccc(C(F)(F)F)c(Cl)c1)N1CC=C(c2ncccc2F)CC1 [Compound 215]
attribute-measured: solubility
meas-value: 0.6
